System: C. krusei ATCC 2340
Experiment: microbe, parasite or virus in culture
Conditions: ATCC 2340, 48 h
Where a SMILES comes first, the peptide text is derived from it. Bridges are numbered along the chain shown (N, C = ends). [ ]: non-standard residue; d: D form. S5 = C=CCCC[C@](C)(N)C(=O)O
attribute-measured: Minimum inhibitory concentration (MIC)

Returns the measured Minimum inhibitory concentration (MIC) for the input compound. Input: CC[C@H](C)[C@H](NC(=O)[C@H](CC(=O)O)NC(=O)[C@H](Cc1ccccc1)NC(=O)[C@H](CC(C)C)NC(=O)CNC(C)=O)C(=O)N[C@H](C(=O)N[C@@H](CCCCN)C(=O)N[C@@]1(C)CCCC=CCCC[C@@](C)(C(=O)N[C@@H](Cc2ccccc2)C(N)=O)NC(=O)[C@H](CCC(=O)O)NC(=O)[C@H](C)NC(=O)[C@H]([C@@H](C)CC)NC1=O)[C@@H](C)CC [Sau-8] (Ac-GLFDIIK[S5]IAE[S5]F-NH2; staple 8-12)
>128 µg/mL

// moving on: another record for Minimum inhibitory concentration (MIC)
Returns the measured Minimum inhibitory concentration (MIC) for the input compound. Input: CC[C@H](C)[C@H](NC(=O)[C@H](CCCCN)NC(=O)[C@]1(C)CCCC=CCCC[C@](C)(NC(=O)[C@H](CC(C)C)NC(=O)CNC(C)=O)C(=O)N[C@@H](CC(=O)O)C(=O)N[C@@H]([C@@H](C)CC)C(=O)N[C@@H]([C@@H](C)CC)C(=O)N1)C(=O)N[C@@H](C)C(=O)N[C@@H](CCC(=O)O)C(=O)N[C@@H](CO)C(=O)N[C@@H](Cc1ccccc1)C(N)=O [Sau-3] (Ac-GL[S5]DII[S5]KIAESF-NH2; staple 3-7)
>128 µg/mL
